Assay: recombinant barcode read abundance after kanamycin selection (control-corrected) (log10(CPM+1)); higher = more efficient recombination; sequences stand for … in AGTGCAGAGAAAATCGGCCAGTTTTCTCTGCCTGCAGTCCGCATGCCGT…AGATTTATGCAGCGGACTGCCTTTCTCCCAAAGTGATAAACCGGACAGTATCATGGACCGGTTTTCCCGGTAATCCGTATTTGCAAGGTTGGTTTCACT; site = the 11-nt target
endpoint.name: recombinant barcode read abundance (log10)

sequence.chain: TACTATGCTTGGGTTCTAACCTGTTGCCT (site TACTATTCTAG)
reported.result: 0.187

sequence.chain: TATTATACTTGGGTTCTAACCTGTTGCGT (site TATTATACTAT)
reported.result: 0.16

sequence.chain: CGCGCTCCTTGGGTTCTAACCTGTTGCCT (site CGCGTTCCTAG)
reported.result: 0.0658

sequence.chain: ACTGATCCTTGGGTTCTAACCTGTTGCCT (site ACTGATTCTAG)
reported.result: 0.0263

sequence.chain: GTTTGTCCTTGGGTTCTAACCTGTTGCTT (site GTTTGCCCTAA)
reported.result: 0.0342

sequence.chain: TCATCTCCTTGGGTTCTAACCTGTTGCCT (site GCATCTCCTAG)
reported.result: 0.0477

sequence.chain: CAGGCGTCTTGGGTTCTAACCTGTTGCCT (site CAGGCGCCTAG)
reported.result: 0.289

sequence.chain: CACTGAGCTTGGGTTCTAACCTGTTGCCT (site TACTGAGCTAG)
reported.result: 0.229

sequence.chain: CGGTTTCCTTGGGTTCTAACCTGTTGCCT (site CGGTTTCCTAG)
reported.result: 0.848

sequence.chain: AGGGAAGCTTGGGTTCTAACCTGTTGCCT (site AGGGGAGCTAG)
reported.result: 0.768

sequence.chain: GCAAGTTCTTGGGTTCTAACCTGTTGCCT (site GAAAGTTCTAG)
reported.result: 0.113

sequence.chain: ACAGGGTCTTGGGTTCTAACCTGTTGCCT (site ATAGGGTCTAG)
reported.result: 0.355

sequence.chain: GTCTTGACTTGGGTTCTAACCTGTTGCCA (site GTCTTAACTCG)
reported.result: 0.0812

sequence.chain: GGCCTCCCTTGGGTTCTAACCTGTTGCCT (site GGCTTCCCTAG)
reported.result: 0.0579

sequence.chain: GCGCTAGCTTGGGTTCTAACCTGTTGCCT (site GCGCTAGCTAG)
reported.result: 0.205

sequence.chain: TGCCGCTCTTGGGTTCTAACCTGTTGCCT (site TGCCGCTCTAG)
reported.result: 1.24

sequence.chain: ACTGGGTCTTGGGTTCTAACCTGTTGCTT (site ACTGAGTCTAA)
reported.result: 0.782

sequence.chain: TAGGCTCCTTGGGTTCTAACCTGTTGCAA (site TAGGCTCCTAT)
reported.result: 0.309

sequence.chain: CTCTGGACTTGGGTTCTAACCTGTTGCAC (site CTCTGGACTGT)
reported.result: 0.64

* * *

Experiment: recombinant UMI read abundance after kanamycin selection (control-corrected) (log10(CPM+1)); higher = more efficient recombination; extreme values may be limits of the assay; sequences stand for … in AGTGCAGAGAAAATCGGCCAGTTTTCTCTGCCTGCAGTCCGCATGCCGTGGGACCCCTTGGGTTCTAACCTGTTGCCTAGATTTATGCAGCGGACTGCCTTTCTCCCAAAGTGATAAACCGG…AGGTTGGTTTCACT; site = the 11-nt donor

sequence.chain: TACAATCCATGGACCGGTTTTCCCGGTAATCCGTATTTGAG (site TACAATCCTCT)
recombinant UMI read abundance (log10): 0.531
//
sequence.chain: AACGACGCATGGACCGGTTTTCCCGGTAATCCGTATTTGTA (site AACGACGCTTA)
recombinant UMI read abundance (log10): 1.99
//
sequence.chain: AGCCGTCCATGGACCGGTTTTCCCGGTAATCCGTATTTGAT (site ACCCGTCCTAT)
recombinant UMI read abundance (log10): 0
//
sequence.chain: AAGCTAGCATGGACCGGTTTTCCCGGTAATCCGTATTTGAA (site AAGCTAGCTTT)
recombinant UMI read abundance (log10): 2.09
//
sequence.chain: GCTTATCCATGGACCGGTTTTCCCGGTAATCCGTATTTGCT (site GCTTATCCTAG)
recombinant UMI read abundance (log10): 1.03
//
sequence.chain: GCTTATCCATGGACCGGTTTTCCCGGTAATCCGTATTTGCT (site GGTTATCCTAG)
recombinant UMI read abundance (log10): 0
//
sequence.chain: CCTGTCGCATGGACCGGTTTTCCCGGTAATCCGTATTTGAA (site CCTGTCGCTTT)
recombinant UMI read abundance (log10): 0.0175
//
sequence.chain: AGACGAACATGGACCGGTTTTCCCGGTAATCCGTATTTGTC (site ATACGAACTGA)
recombinant UMI read abundance (log10): 0.731
//
sequence.chain: CACTCGGCATGGACCGGTTTTCCCGGTAATCCGTATTTGGA (site CACTCGGCTTC)
recombinant UMI read abundance (log10): 1.09
//
sequence.chain: ATTAAGACATGGACCGGTTTTCCCGGTAATCCGTATTTGGT (site ATTGAGACTAC)
recombinant UMI read abundance (log10): 0.577
//
sequence.chain: AACTATGCATGGACCGGTTTTCCCGGTAATCCGTATTTGGA (site AAGTATGCTTC)
recombinant UMI read abundance (log10): 0.552
//
sequence.chain: ATGTTCCCATGGACCGGTTTTCCCGGTAATCCGTATTTGTG (site AAGTTCCCTCA)
recombinant UMI read abundance (log10): 0.0217
//
sequence.chain: ATTAAAGCATGGACCGGTTTTCCCGGTAATCCGTATTTGTA (site ATTAAAGCTTA)
recombinant UMI read abundance (log10): 2.6
//
sequence.chain: GAGACGCCATGGACCGGTTTTCCCGGTAATCCGTATTTGCC (site GAGACGCCTGG)
recombinant UMI read abundance (log10): 0
//
sequence.chain: ACGGTATCATGGACCGGTTTTCCCGGTAATCCGTATTTGCG (site ACGGTATCTCG)
recombinant UMI read abundance (log10): 3.15

* * *

Assay: recombinant barcode read abundance after kanamycin selection (control-corrected) (log10(CPM+1)); higher = more efficient recombination; sequences stand for … in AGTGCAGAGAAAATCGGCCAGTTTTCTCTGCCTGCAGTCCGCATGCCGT…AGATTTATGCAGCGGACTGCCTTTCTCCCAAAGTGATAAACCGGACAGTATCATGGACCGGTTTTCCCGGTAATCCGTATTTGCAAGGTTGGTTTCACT; site = the 11-nt target
Rule: recombinant barcode read abundance (log10) of 0.2 or more gives criterion met; anything lower gives criterion not met.

sequence.chain: CGCGATCCTTGGGTTCTAACCTGTTGCGT (site AGCGACCCTAC)
class: criterion not met
//
sequence.chain: ATGAATGCTTGGGTTCTAACCTGTTGCCT (site ATGAATGCTAG)
class: criterion met
//
sequence.chain: CAAACTCCTTGGGTTCTAACCTGTTGCAT (site CAAACTCCTAA)
class: criterion not met
//
sequence.chain: CACGAGCCTTGGGTTCTAACCTGTTGCCT (site CACGAGGCTAG)
class: criterion not met
//
sequence.chain: GGATCTACTTGGGTTCTAACCTGTTGCCT (site GAATCTACTAG)
class: criterion not met
//
sequence.chain: ACTAGGACTTGGGTTCTAACCTGTTGCAG (site ACTAGGACTCT)
class: criterion met
//
sequence.chain: TCACGTCCTTGGGTTCTAACCTGTTGCGT (site TCACGTCCTAG)
class: criterion not met
//
sequence.chain: CTAAGGTCTTGGGTTCTAACCTGTTGCCT (site CTAAGGTCTAT)
class: criterion met
//
sequence.chain: AATCGGCCTTGGGTTCTAACCTGTTGCGT (site AATTGGCCTAC)
class: criterion not met
//
sequence.chain: CCGATCCCTTGGGTTCTAACCTGTTGCCT (site CAGATCCCTAG)
class: criterion met
//
sequence.chain: TGACAGGCTTGGGTTCTAACCTGTTGCAG (site GTACAGGCTCT)
class: criterion met
//
sequence.chain: TCCCATTCTTGGGTTCTAACCTGTTGCCT (site TCCCATCCTAG)
class: criterion not met
//
sequence.chain: AGCTCCGCTTGGGTTCTAACCTGTTGCCT (site AGCTCCGCTAG)
class: criterion met
//
sequence.chain: TTCAAAACTTGGGTTCTAACCTGTTGCCT (site TTCAAACCTAG)
class: criterion not met
//
sequence.chain: GGGCACTCTTGGGTTCTAACCTGTTGCGT (site GGGCACTCTAC)
class: criterion met
//
sequence.chain: AGTAGAACTTGGGTTCTAACCTGTTGCCT (site AGTAGAACTAG)
class: criterion met
//
sequence.chain: CTTCCTTCTTGGGTTCTAACCTGTTGCCT (site CTTCCTTCTAG)
class: criterion met
//
sequence.chain: ACCGACCCTTGGGTTCTAACCTGTTGCAT (site TAGTTTGCTCG)
class: criterion met
//
sequence.chain: ATCTTGTCTTGGGTTCTAACCTGTTGCCG (site ATCTTGTCTAG)
class: criterion met
//
sequence.chain: GGCCTCCCTTGGGTTCTAACCTGTTGCCT (site GGCATCCCTAG)
class: criterion met
//
sequence.chain: TGACCAGCTTGGGTTCTAACCTGTTGCCT (site TGACCAGCTAG)
class: criterion met
//
sequence.chain: ATGAGGACTTGGGTTCTAACCTGTTGCGT (site CACCCCTCTCG)
class: criterion not met
//
sequence.chain: TGGCCTTCTTGGGTTCTAACCTGTTGCCT (site TAGCCTTCTAG)
class: criterion not met
//
sequence.chain: GCACACACTTGGGTTCTAACCTGTTGCTG (site GAACACACTCG)
class: criterion not met
//
sequence.chain: ACCGCTCCTTGGGTTCTAACCTGTTGCCT (site AGCGCTCCTAG)
class: criterion not met
//
sequence.chain: ACATGGACTTGGGTTCTAACCTGTTGCAT (site ACATGGACTAT)
class: criterion met
//
sequence.chain: ACCCAGCCTTGGGTTCTAACCTGTTGCAT (site ACCCAGCCTAG)
class: criterion met
//
sequence.chain: ACAGCTACTTGGGTTCTAACCTGTTGCTT (site ACAGCTACTAA)
class: criterion met
//
sequence.chain: ATGCAAGCTTGGGTTCTAACCTGTTGCCT (site ATGCAAACTAG)
class: criterion met
//
sequence.chain: TAGCACACTTGGGTTCTAACCTGTTGCGG (site TAGCACACTCC)
class: criterion met
//
sequence.chain: CAACACCCTTGGGTTCTAACCTGTTGCAT (site GTTTCAACTTG)
class: criterion not met
//
sequence.chain: AGGGTGCCTTGGGTTCTAACCTGTTGCTA (site AGGGTGTCTCA)
class: criterion not met
//
sequence.chain: CGGCGTCCTTGGGTTCTAACCTGTTGCCT (site CGGCGTCCTCG)
class: criterion not met
//
sequence.chain: AAAAGTCCTTGGGTTCTAACCTGTTGCCT (site AAAAGTCCTAG)
class: criterion met
//
sequence.chain: TAAATAGCTTGGGTTCTAACCTGTTGCCT (site TAATTAGCTAG)
class: criterion met
//
sequence.chain: AGATTATCTTGGGTTCTAACCTGTTGCCT (site AGATTATCTAG)
class: criterion met
